- Tested on: RPMI-8226
- protocol: NCI tumour cell line growth inhibition, 48 h
The source made the active and inactive calls. No stated cut-off is given here; in the data, active = GI50 up to about 1.1 µM and inactive = higher.
Just give me one of these, please: active, inactive

CC(C)Cc1c(C#N)c(C#N)c(N)n1Cc1ccccc1: inactive
O=C(C/C=C/c1ccccc1)c1ccccc1: inactive
O=C(N/N=C(COc1cccc(Cl)c1)\N=C\c1ccncc1)c1ccncc1: inactive

# evaluate next
Dear all, I need the recorded test outcome for "COC(=O)c1cc(=O)nc2cc3cccccc3n12" , thank you. inactive

* * *

- System: SF-539
- protocol: NCI tumour cell line growth inhibition, 48 h
Calls of active or inactive are those of the source. Rule as the data show it: active = GI50 up to about 1.1 µM and inactive = higher.
Documented GI50 across a set of compounds

CN(CC(N)=O)C(=O)N(CCCl)N=O: 38.3 µM (inactive)
CC(C)N(C(=O)C12C3C4C5C3C1(C(=O)O)C5C42)C(C)C (centres undefined): > 100 µM (inactive)
O=C1[C@H]2ON(c3ccccc3)C(c3ccccc3)[C@H]2C(=O)N1c1ccc(Cc2ccc(N3C(=O)[C@@H]4ON(c5ccccc5)C(c5ccccc5)[C@@H]4C3=O)cc2)cc1 (some centres undefined): > 100 µM (inactive)

Now consider the entry below.
Sure, the documented GI50 for "CCC1(CC)C(=O)OC(=O)C1(CC)CC" is > 100 µM (inactive)
